# system tested: human H3 receptor (SK-N-MC cells) (Homo sapiens)
# Construct: expressed in transfected cells; host or cells: SK-N-MC sublines with CRE-beta-galactosidase reporter
# Sequence (Q9Y5N1 whole entry): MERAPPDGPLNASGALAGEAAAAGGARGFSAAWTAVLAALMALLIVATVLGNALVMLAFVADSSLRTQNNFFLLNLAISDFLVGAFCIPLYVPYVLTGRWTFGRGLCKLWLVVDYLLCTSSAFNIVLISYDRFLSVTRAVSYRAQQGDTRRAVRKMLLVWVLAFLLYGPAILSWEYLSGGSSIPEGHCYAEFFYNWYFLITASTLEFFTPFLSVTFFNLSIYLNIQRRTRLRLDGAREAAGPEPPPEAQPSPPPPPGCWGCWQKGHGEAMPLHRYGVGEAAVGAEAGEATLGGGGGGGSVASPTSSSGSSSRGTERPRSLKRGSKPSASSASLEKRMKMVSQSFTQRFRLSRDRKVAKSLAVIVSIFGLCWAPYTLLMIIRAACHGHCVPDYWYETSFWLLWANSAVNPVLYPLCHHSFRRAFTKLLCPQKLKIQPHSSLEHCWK
# assay summary: Cyclic AMP accumulation (β-galactosidase reporter, Schild analysis vs histamine)
# Format: cell-based
# condition summary: read-out: H3 pA2 (converted)
endpoint label: Kb (nM)

- molecule: "Oc1ccc([C@H]2CN3CCC[C@H]3c3cc(OCCCN4CCCCC4)ccc32)cc1 (relative stereo)"
  endpoint label: "Kb"
  quantitative readout: 0.316
- molecule: "CSc1ccc([C@@H]2CN3CCC[C@H]3c3cc(C#CCCN4CCCCC4)ccc32)cc1 (relative stereo) [Example 98A]"
  endpoint label: "Kb"
  quantitative readout: 10
- molecule: "Ic1ccc([C@H]2CN3CCC[C@H]3c3cc(OCCCN4CCCCC4)ccc32)cc1 (relative stereo) [Example 35B]"
  endpoint label: "Kb"
  quantitative readout: 3.16
- molecule: "Ic1cccc([C@H]2CN3CCC[C@H]3c3cc(OCCCN4CCCCC4)ccc32)c1 (relative stereo)"
  endpoint label: "Kb"
  quantitative readout: 0.316
- molecule: "Cc1ccc([C@H]2CN3CCC[C@H]3c3cc(OCCCN4CCCCC4)ccc32)cc1 (relative stereo)"
  endpoint label: "Kb"
  quantitative readout: 2.51
- molecule: "COc1cc(OC)cc([C@H]2CN3CCC[C@H]3c3cc(OCCCN4CCCCC4)ccc32)c1 (relative stereo)"
  endpoint label: "Kb"
  quantitative readout: 0.794
- molecule: "Oc1cccc([C@H]2CN3CCC[C@H]3c3cc(OCCCN4CCCCC4)ccc32)c1 (relative stereo)"
  endpoint label: "Kb"
  quantitative readout: 0.126
- molecule: "Fc1ccc([C@@H]2CN3CCC[C@H]3c3cc(OCCCN4CCCCC4)ccc32)cc1 (relative stereo) [Example 14A]"
  endpoint label: "Kb"
  quantitative readout: 1
- molecule: "C#Cc1ccc([C@H]2CN3CCC[C@H]3c3cc(OCCCN4CCCCC4)ccc32)cc1 (relative stereo)"
  endpoint label: "Kb"
  quantitative readout: 1.58
